Taken from patent US6720324B2.

- assayed.system: human GALR1 (Homo sapiens, UniProt P47211)
- Construct: expressed in transfected cells
- Sequence (P47211 whole entry): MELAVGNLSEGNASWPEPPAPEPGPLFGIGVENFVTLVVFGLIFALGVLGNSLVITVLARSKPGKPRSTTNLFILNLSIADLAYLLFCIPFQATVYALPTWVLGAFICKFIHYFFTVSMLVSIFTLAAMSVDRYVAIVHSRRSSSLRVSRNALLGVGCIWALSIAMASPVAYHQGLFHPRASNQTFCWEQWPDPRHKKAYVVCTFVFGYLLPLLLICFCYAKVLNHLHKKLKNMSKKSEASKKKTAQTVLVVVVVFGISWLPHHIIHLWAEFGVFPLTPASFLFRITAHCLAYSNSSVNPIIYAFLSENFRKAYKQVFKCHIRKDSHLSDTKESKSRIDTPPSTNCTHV
- test.summary: Radioligand binding assay, cloned receptor
- test.settings: Table 2; read-out: hGALR1 Ki
reported.metric: Ki

GET /values?readout=Ki&item= 2-(3,4-DIFLUOROPHENYL)4,5-DIHYDROIMIDAZOLE-1-CARBOXYLIC ACID {3-[4-PHENYL-4-(4-BROMO-5-METHYLTHIOPNEN-2-YL)]PROPYL}-AMIDE [Example 19] > 50 µM

* * *

- assayed.system: human MCH1 receptor (Homo sapiens)
- Sequence (Q99705 whole entry): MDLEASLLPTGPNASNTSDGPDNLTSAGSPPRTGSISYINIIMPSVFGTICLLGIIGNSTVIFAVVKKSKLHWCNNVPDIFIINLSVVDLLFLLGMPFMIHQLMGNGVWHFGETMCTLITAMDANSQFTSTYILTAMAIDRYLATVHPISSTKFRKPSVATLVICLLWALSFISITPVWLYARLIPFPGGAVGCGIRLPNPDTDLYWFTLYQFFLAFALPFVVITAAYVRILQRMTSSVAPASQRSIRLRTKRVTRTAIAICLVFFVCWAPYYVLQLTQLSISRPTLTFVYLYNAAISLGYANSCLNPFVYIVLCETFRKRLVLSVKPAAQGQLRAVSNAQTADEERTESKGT
- test.summary: Functional assay: intracellular calcium mobilization (antagonist potency Kb)
- Type: cell-based
- Set-up: expressed in transfected cells; host or cells: COS-7 cells, transient, DEAE-dextran, plasmid pEXJ.HR-TL231 (ATCC 203197)
- test.settings: Table 2; antagonist potency at the human MCH1 receptor; read-out: hMCH1 Kb
reported.metric: Kb

Example entries and their recorded answers appear below.
CCCCc1ccc(-c2cc(=O)[nH]c3[nH]c(=O)[nH]c(=O)c23)s1 [Example 37] :: 162 nM
CCN1c2ccc(/C=C3\SC(=S)NC3=O)cc2C(C)=CC1(C)C [Example 25] :: 126 nM

Consider the additional compound presented here.
GET /values?readout=Kb&item= CCCCN(CCCC)c1ccc(CNC[C@H]2CC[C@H](NC(=O)c3cccc4ccccc34)CC2)cc1 [Example 13] 284 nM
